tested on: CD2F1 mice, L1210 leukemia ip, survival T/C; test: NCI In Vivo Anticancer Drug Screen. Data for tumor model L1210 Leukemia (intraperitoneal) in CD2F1 (CDF1) mice; details: endpoint: mean survival time; dose: 200.0 mg/kg/injection; schedule: Q01DX009 (ip); vehicle: saline with Tween-80; higher = longer survival
Inconclusive results and toxic doses are left out.
Measurement Name: T/C

The examples below pair each entry with its known result.
{"Molecule": "NC(=S)c1csc(CCNC(=O)c2ccccc2)n1", "T/C": "98 % of control"}
{"Molecule": "CC(=O)Nc1ncc(C)s1", "T/C": "104 % of control"}
{"Molecule": "Nc1ccc2[nH]c(-c3ccc(S(=O)(=O)F)cc3)cc(=O)c2c1", "T/C": "106 % of control"}
{"Molecule": "O=C(Nc1nccs1)c1ccc(Cl)cc1", "T/C": "92 % of control"}
{"Molecule": "Clc1ccc(CN2CN(Cc3ccc(Cl)cc3)CN(Cc3ccc(Cl)cc3)C2)cc1", "T/C": "97 % of control"}

State the recorded T/C for this entry: Cc1c2c(cc3c1[nH]c1ccccc13)C(c1ccc(Cl)cc1)=NCC2
98 % of control

Follow-up item: COC(C)C(O)(c1ccccc1)c1ccccc1 (stereo unspecified)
96 % of control

Next record, please: CC(NC(=O)OCc1ccccc1)C(=O)O (stereo unspecified)
94 % of control

And for CCOC(=O)C1C=CCCC1 (stereo unspecified) ?
103 % of control

Field entry: CCOC(=O)/C=C/C1CCCCC1
96 % of control

Try this molecule too: CN1CN(C2CCCCC2)CSC1=S
96 % of control

----------
system: CD2F1 mice, L1210 leukemia ip, survival T/C; assay: NCI In Vivo Anticancer Drug Screen. Data for tumor model L1210 Leukemia (intraperitoneal) in CD2F1 (CDF1) mice; conditions: endpoint: mean survival time; dose: 400.0 mg/kg/injection; schedule: Q04DX003 (ip); vehicle: saline with Tween-80; higher = longer survival
Toxic doses and inconclusive results are not listed.
Measurement Name: T/C

Use these answered entries as a reference point.
{"Compound": "Cc1ccc(NC(=O)c2ccc(Cl)cc2)c(Br)c1", "Measurement Name": "T/C", "Result": "97 % of control"}
{"Compound": "CCOP(=O)(OCC)/C(C#N)=C\\c1ccc(O)c(OC)c1", "Measurement Name": "T/C", "Result": "96 % of control"}

Please look up its T/C: O=C1CNC(c2ccccc2)C(c2ccccc2)N1 (stereo unspecified)
101 % of control

Another: O=C(O)/C(=C/c1ccc(O)cc1)c1ccccc1
96 % of control

Can you handle O=[N+]([O-])c1ccc(N/N=C(/C(=N/Nc2ccc([N+](=O)[O-])cc2)c2ccccc2)c2ccccc2)cc1 next?
88 % of control

Please give the result for OC1C2CC3C1C3C2O (stereo unspecified) too.
105 % of control

----------
Tested on: CD2F1 mice, L1210 leukemia ip, survival T/C
Assay: NCI In Vivo Anticancer Drug Screen. Data for tumor model L1210 Leukemia (intraperitoneal) in CD2F1 (CDF1) mice
Conditions: endpoint: mean survival time; dose: 100.0 mg/kg/injection; schedule: Q04DX003 (ip); vehicle: other; higher = longer survival
Procedure: The antitumor activity of compounds was measured in mice bearing transplantable tumors. Survival or tumor size were measured and the results are expressed as the measurement made in the treated group (T) divided by the measurement made in the vehicle treated control group (C). The tumor model used in this assay is L1210 Leukemia (intraperitoneal) in CD2F1 (CDF1) mice
Toxic doses and inconclusive results are not listed.
# T/C annotations

A selection of reference data follows.
{"Compound": "Cc1ccc(NC(=O)OCCSCCOC(=O)Nc2ccc(C)cc2)cc1", "T/C": "93 % of control"}
{"Compound": "CC(C)(C)OC(=O)NC(C(=O)O)C1=CCC=CC1 (stereo unspecified)", "T/C": "106 % of control"}
{"Compound": "CCOC(C)C(O)(c1ccc(N(C)C)cc1)c1ccc(N(C)C)cc1 (stereo unspecified)", "T/C": "95 % of control"}
{"Compound": "Nc1ncc2ccccc2c1-c1ccc(NC(=O)CN(CCCl)CCCl)cc1", "T/C": "103 % of control"}
{"Compound": "C[SeH]C.C[SeH]C.O.O=S(=O)(O)O.[Pt]", "T/C": "107 % of control"}

Now look at this one.
What measured T/C goes with CN(C)c1ccc(N=Nc2ccc3c(c2)C(=O)c2ccccc2C3=O)cc1 ?
95 % of control

----------
system: CD2F1 mice, L1210 leukemia ip, survival T/C; test: NCI In Vivo Anticancer Drug Screen. Data for tumor model L1210 Leukemia (intraperitoneal) in CD2F1 (CDF1) mice; details: endpoint: mean survival time; dose: 25.0 mg/kg/injection; schedule: Q01DX009 (ip); vehicle: saline with Tween-80; higher = longer survival
Inconclusive results and toxic doses are left out.
Measurement Name: T/C

Below are worked cases with known answers.
{"Compound": "O=C(Nc1cccc(C(F)(F)F)c1)c1cccc(C(=O)Nc2cccc(C(F)(F)F)c2)c1", "T/C": "89 % of control"}
{"Compound": "Cc1ccc(NC(=O)OCCOc2ccccc2Cl)cc1[N+](=O)[O-]", "T/C": "103 % of control"}
{"Compound": "O=S(=O)(Cl)OC1C2COC(O2)C(OS(=O)(=O)Cl)C1OS(=O)(=O)Cl (stereo not drawn)", "T/C": "103 % of control"}
{"Compound": "C=CCc1ccc(OC(=O)Nc2ccc(C)c([N+](=O)[O-])c2)c(OC)c1", "T/C": "103 % of control"}
{"Compound": "O=C(O)c1cc(=O)cc(C(=O)O)o1", "T/C": "91 % of control"}
{"Compound": "COc1ccc2nc3cc(Cl)ccc3c(NCCNCCNCCNc3c4ccc(Cl)cc4nc4ccc(OC)cc34)c2c1", "T/C": "103 % of control"}
{"Compound": "O=C1c2ccccc2C(=O)N1CBr", "T/C": "97 % of control"}
{"Compound": "CCCCCCCCCCNC(=O)C[n+]1cccc(C(=O)N(CC)CC)c1", "T/C": "91 % of control"}

Switching to the query record.
Query for CD2F1 mice, L1210 leukemia ip, survival T/C: what T/C does the record show for Cc1cc(N(CC(C)Br)CC(C)Br)ccc1N=Nc1ccccc1C(=O)O (stereo not drawn) ?
86 % of control

----------
test system: CD2F1 mice, L1210 leukemia ip, survival T/C; assay: NCI In Vivo Anticancer Drug Screen. Data for tumor model L1210 Leukemia (intraperitoneal) in CD2F1 (CDF1) mice; conditions: endpoint: mean survival time; dose: 400.0 mg/kg/injection; schedule: Q01DX001 (ip); vehicle: saline; higher = longer survival
Inconclusive results and toxic doses are left out.
Measurement Name: T/C

{"Compound": "COC1C(CO)OC(O)C(N)C1OC (configuration not stated)", "T/C": "97 % of control"}
{"Compound": "Nc1ccc(CC(=O)Nc2ccc(S(=O)(=O)F)cc2)cc1", "T/C": "105 % of control"}

For BrC/C(=N\N1CCCCCC1)c1ccc(Br)cc1 , what is its reported T/C?
92 % of control

Now this one: CC(=O)Nc1ccc(C(=O)C=P(c2ccccc2)(c2ccccc2)c2ccccc2)cc1
97 % of control

How about CCCCCCCCCCC(CCCCCCCCCC)C1CC(C)CCC1C (configuration not stated) ?
97 % of control

Try O=C(CCl)NCCCCNC(=O)CCl next.
100 % of control

Please do the same for O=C1C(c2ccccc2)CN1C1CCCCC1 (configuration not stated) as well.
87 % of control

----------
tested on: CD2F1 mice, L1210 leukemia ip, survival T/C; assay: NCI In Vivo Anticancer Drug Screen. Data for tumor model L1210 Leukemia (intraperitoneal) in CD2F1 (CDF1) mice; details: endpoint: mean survival time; dose: 200.0 mg/kg/injection; schedule: Q01DX009 (ip); vehicle: Klucel (hydroxypropylcellulose) (HPC); higher = longer survival
Toxic doses and inconclusive results are not listed.
Listing of recorded T/C by entry.

Answered cases to consult:
{"Molecule": "COC(=O)C1=NNC(C(=O)OC)=C(c2ccccc2)C(c2ccccc2)=N1", "T/C": "109 % of control"}
{"Molecule": "O=S(=O)(N/N=C/c1ccccc1)c1ccccc1", "T/C": "92 % of control"}
{"Molecule": "CCOC(=O)c1ccc(NC(=O)Nc2nccs2)cc1", "T/C": "110 % of control"}
{"Molecule": "CC1(Br)C(Sc2ccccc2[N+](=O)[O-])=Nc2ccccc21 (stereo not given)", "T/C": "94 % of control"}

// returns reported T/C for input CC(=O)OC1CCC2(C)C(=CC=C3C2CCC2(C)C3CC3OC4(CCC(C)CO4)C(C)C32)C1 (stereo not given)
94 % of control

And what about the molecule CN(C)c1ccc(/C=C2\CCC/C(=C\c3ccc(N(C)C)cc3)C2=O)cc1 ?
101 % of control

Could you do the same for CC1C(O)=C(c2ccccc2)P(=O)(Cc2ccccc2)C1C (stereo not given) , please?
93 % of control

Please answer likewise for Cc1ccc(S(=O)(=O)N2CCn3ncc(C#N)c32)cc1
89 % of control

Then this molecule: O=C(/C=C/c1ccc(Cl)c(Cl)c1)/C=C/c1ccc(Cl)c(Cl)c1
90 % of control

Now the molecule CC(Cl)CN(CC(C)Cl)c1ccc(N=Nc2ccccc2)cc1 (stereo not given)
90 % of control

// next record OCCN(c1ccccc1)C1CCCCC1
106 % of control

Ok, now CC(=O)Nc1ccc(CN2CC(C)N(N)C(C)C2)cc1 (stereo not given)
103 % of control

Another: O=C(O)C1(NO)CCCCC1
97 % of control

Please give the result for O=[N+]([O-])C=C(S)S too.
90 % of control

Thanks! And CCN(CC)S(=O)(=O)c1ccccc1 ?
96 % of control

Numbers sourced from PubChem BioAssay AID256.
